All values here come from ChEMBL document CHEMBL2429790.

# Measurement Notes: Aqueous kinetic solubility of the compound at pH 7.4
# Type: physicochemical
# Test Conditions: read-out: Kinetic_solubility
Measured Endpoint: solubility kinetic (µM)

A: Cc1ccc(C(=O)O)cc1-c1cnc(N)c(N[C@H](C)c2ccc(Cl)cc2)n1
B: C[C@@H](Nc1nc(-c2cccc(C(=O)O)c2)cnc1N)c1ccccc1
Incoming: Which shows the larger solubility kinetic value: A or B ? Kindly give the label for the entry you pick.
Outgoing: B

---

# Measurement Notes: Oral bioavailability in Sprague-Dawley rat at 1.5 mg/kg
# Type: ADME, organism-based
# Test Conditions: in vivo
Measured Endpoint: bioavailability (%)
Use % as the unit, but write only the number.

Incoming: Please look up its bioavailability: Cc1ccc(C(=O)O)cc1-c1cnc(N)c(N[C@H](C)c2ccc(Cl)cc2)n1
Outgoing: 41

---

# Assayed System: L-lactate dehydrogenase A chain (Homo sapiens, UniProt P00338)
# Measurement Notes: Binding affinity to human recombinant carboxy-terminal his-tagged LDHA (1 to 331) expressed in Escherichia coli by surface plasmon resonance analysis in presence of NADH
Measured Endpoint: Kd (µM)

Incoming: Consider the molecule Cc1ccc(C(=O)O)cc1-c1cnc(N)c(N[C@H](C)c2ccccc2)n1 and give its measured Kd.
Outgoing: 3

a: Nc1ncc(-c2cccc(C(=O)O)c2)nc1NCc1ccccc1
b: C[C@@H](Nc1nc(-c2cc(C(=O)O)ccc2Cl)cnc1N)c1ccccc1
c: COc1ccc(C(=O)O)cc1-c1cnc(N)c(N[C@H](C)c2ccccc2)n1
Incoming: Put the entries in order of Kd, starting with the largest number. Put the labels in the requested order and list them out.
Outgoing: a, b, c
(a: 22 µM, b: 5 µM, c: 3 µM)

---

# Measurement Notes: AUC (infinity) in Sprague-Dawley rat at 1.5 mg/kg, po
# Format: ADME, organism-based
# Design: time infinity, dose 1.5 mg/kg, route oral
# Test Conditions: plasma
Measured Endpoint: AUC(0-inf) (µM·h)
Number in µM·h, nothing else.

Incoming: Query: AUC(0-inf); subject: Cc1ccc(C(=O)O)cc1-c1cnc(N)c(N[C@H](C)c2ccc(Cl)cc2)n1
Outgoing: 0.55

---

# Assayed System: L-lactate dehydrogenase A chain (Homo sapiens, UniProt P00338)
# Measurement Notes: Inhibition of human recombinant carboxy-terminal his-tagged LDHA (1 to 331) expressed in Escherichia coli using pyruvate as substrate assessed as disappearance of NADH after 10 mins by fluorescence assay
Measured Endpoint: IC50

Incoming: Entry C[C@@H](Nc1nc(-c2cccc(C(N)=O)c2)cnc1N)c1ccccc1 : reported IC50 = ?
Outgoing: > 100 µM

Incoming: Next compound: C[C@@H](Oc1nc(-c2cccc(C(=O)O)c2)cnc1N)c1ccccc1
Outgoing: > 100 µM

Here is the next item to consider.
Incoming: Find the recorded IC50 belonging to COCCNc1nc(-c2cccc(C(=O)O)c2)cnc1N and report it.
Outgoing: > 100 µM

---

pIC50 overview
# Assayed System: L-lactate dehydrogenase A chain (Homo sapiens)
# Measurement Notes: Inhibition of human recombinant carboxy-terminal his-tagged LDHA (1 to 331) expressed in Escherichia coli using pyruvate as substrate assessed as disappearance of NADH after 10 mins by fluorescence assay
pIC50: −log10 of the molar value.

Incoming: Entry under review: C[C@@H](Nc1nc(-c2cccc(C(=O)NS(C)(=O)=O)c2)cnc1N)c1ccccc1 . Reported pIC50?
Outgoing: < 4.00

More entries:
Incoming: Which pIC50 value belongs to CC(=O)Nc1ncc(-c2cccc(C(=O)O)c2)nc1N[C@H](C)c1ccccc1 ?
Outgoing: < 4.00

Incoming: Next: C[C@H](c1ccccc1)N(C)c1nc(-c2cccc(C(=O)O)c2)cnc1N
Outgoing: < 4.00

Incoming: Now the molecule C[C@H](Nc1nc(-c2cccc(C(=O)O)c2)cnc1N)c1ccccc1
Outgoing: < 4.00

---

# Assayed System: L-lactate dehydrogenase A chain (Homo sapiens, UniProt P00338)
# Measurement Notes: Inhibition of human recombinant carboxy-terminal his-tagged LDHA (1 to 331) expressed in Escherichia coli using pyruvate as substrate assessed as disappearance of NADH after 10 mins by fluorescence assay
Measured Endpoint: IC50

Use the examples below as a reference point.
Incoming: I have this compound here, CCOC(=O)c1cccc(-c2cnc(N)c(N[C@H](C)c3ccccc3)n2)c1 , and I need its recorded IC50.
Outgoing: > 100 µM

Incoming: Next compound up: C[C@@H](Nc1nc(-c2cccc(C(=O)O)c2)cnc1O)c1ccccc1
Outgoing: > 100 µM

Incoming: Can you handle C[C@@H](Nc1nc(-c2cccc(C(=O)O)c2)ccc1N)c1ccccc1 next?
Outgoing: > 100 µM

Next:
Incoming: Give its IC50 value. Item: C[C@@H](Nc1nc(-c2ccccc2C(=O)O)cnc1N)c1ccccc1
Outgoing: > 100 µM
